Reference source for all entries: the PETadex activity labels (doi:10.1038/s41467-023-40233-w)

- Substrate: pcPET (post-consumer)
- assay-overview: Proxy for plastic degradation [Released monomer concentration (HPLC/LC-MS) (TPA+MHET+BHET)]
- test-parameters: pH 9; 60 °C; 6 h
reported-metric: Proxy for plastic degradation (µM)
Reply with just the number (in µM).

Below: 3 proteins and their reported Proxy for plastic degradation.
// sample unnamed (protein) MLSFLRSTGRPERRRASLPALLLFTAALVASGLTAAPAAQAADNPYQRGPDPTNASIEAATGPFAVGTQPIVGASGFGGGQIYYPTDTSQTYGAVVIVPGFISVWAQLAWLGPRLASQGFVVIGIETSTITDLPDPRGDQALAALDWATTRSPVRSRIDRTRLAAAGWSMGGGGLRRAACQRPSLKAIVGMAPWNTEKNWSCVTVPTLFFGGSSDAVASPNDHAKPFYNSITRAEKDYIELCNADHFFPTSANTTMAKYFISWLKRWVDNDTRYTQFLCPGPSTGLFAPVCASMNTCPF , its Proxy for plastic degradation was 1860

// sample unnamed (protein) MLSFLRSTGRPERRRASLPALLLFTAALVASGLTAAPAAQAADNPYQRGPDPTNASIEAATGPFAVGTQPIVGASGFGGGQIYYPTDTSQTYGAVVIVPGFISVWAQLNWLGPRLASQGFVVIGIETSVITDLPDPRGDQALAALDWATTRSPVRSRIDRTRLAAAGWSMGGGGLRRAACQRPSLKAIVGMAPWNGERNWSCVTVPTLFFGGSSDAVASPNDHAKPFYNSITRAEKDYIELCNADHFFPTSANTTMAKYFISWLKRWVDNDTRYTQFLCPGPSTGLFAPVCASMNTCPF , its Proxy for plastic degradation was 360

// sample unnamed (protein) MLSFLRSTGRPERRRASLPALLLFTAALVASGLTAAPAAQAADNPYQRGPDPTNASIEAATGPFAVGTQPIVGASGFGGGQIYYPTDTSQTYGAVVIVPGFISVWAQLNWLGPRLASQGFVVIGIETSTITDLPDPRGDQALAALDWATTRSPVASRIDRTRLAAAGWSMGGGGLRRAACQRPSLKAIVGMAPWNGEKNWSCVTVPTLFFGGSSDAVASPNDHAKPFYNSITRAEKDYIELCNADHFFPTSANTTMAKYFISWLKRWVDNDTRYTQFLCPGPSTGLFAPVCASMNTCPF , its Proxy for plastic degradation was 1020

Now look at this entry.
// sample unnamed (protein) MLSFLRSTGRPERRRASLPALLLFTAALVASGLTAAPAAQAADNPYQRGPDPTNASIEAATGPFAVGTQPIVGASGFGGGQIYYPTDTSQTYGAVVIVPGFISVWAQLNWLGPRLASQGFVVIGIETSVITDLPDPRGDQALAALDWATTRSPVASRIDRTRLAAAGWSMGGGGLRRAALQRPSLKAIVGMAPWNGERNWSAVTVPTLFFGGSSDAVASPNDHAKPFYNSITRAEKDYIELRNADHFFPTSANTTMAKYFISWLKRWVDNDTRYTQFLCPGPSTGLFAPVSASMNTCPF , its Proxy for plastic degradation was 60
